tested on: LXRb homodimer (NR concentration 270 nM); test: PBM binding z-score (relative to random genomic background probes); higher = stronger binding; sequences stand for … in GC…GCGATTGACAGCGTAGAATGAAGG
Output Yes for PBM binding z-score not less than 0.1; output No otherwise.

sequence_input=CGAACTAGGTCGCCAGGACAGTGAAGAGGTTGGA group_label=No
sequence_input=TGTCAAAGGTCAAAGGTAACGTAAGTATCCACAC group_label=Yes
sequence_input=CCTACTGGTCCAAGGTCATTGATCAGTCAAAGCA group_label=Yes
sequence_input=TCTCGGAGGACACTAAAGGTCAGAGCTCGACATC group_label=Yes
sequence_input=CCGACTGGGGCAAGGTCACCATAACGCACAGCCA group_label=No
sequence_input=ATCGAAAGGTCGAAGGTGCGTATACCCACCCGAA group_label=No
sequence_input=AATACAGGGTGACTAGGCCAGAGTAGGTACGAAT group_label=No
sequence_input=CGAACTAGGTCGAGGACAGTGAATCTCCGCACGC group_label=No
sequence_input=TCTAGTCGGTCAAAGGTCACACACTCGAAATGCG group_label=Yes
sequence_input=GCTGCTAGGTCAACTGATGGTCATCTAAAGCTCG group_label=Yes
sequence_input=CCTTAGGGGTCACTGACAGGTTATAGCATTTGGA group_label=Yes
sequence_input=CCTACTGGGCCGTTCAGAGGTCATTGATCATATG group_label=Yes

----------
test system: LXRa homodimer (NR concentration 270 nM); assay: PBM binding z-score (relative to random genomic background probes); higher = stronger binding; sequences stand for … in GC…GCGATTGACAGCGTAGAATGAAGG
Definition: the class of an entry is the range in I: < 1; II: ≥ 1 and < 5; III: ≥ 5 that contains its PBM binding z-score.

sequence_input=CCTTAGGGGTCACGAGGTTATAGCACGACGAGCG target_entity="LXRa homodimer (NR concentration 270 nM)" group_label=II
sequence_input=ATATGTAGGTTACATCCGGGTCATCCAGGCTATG target_entity="LXRa homodimer (NR concentration 270 nM)" group_label=II
sequence_input=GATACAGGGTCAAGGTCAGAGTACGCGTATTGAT target_entity="LXRa homodimer (NR concentration 270 nM)" group_label=II
sequence_input=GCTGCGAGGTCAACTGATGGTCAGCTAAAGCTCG target_entity="LXRa homodimer (NR concentration 270 nM)" group_label=II
sequence_input=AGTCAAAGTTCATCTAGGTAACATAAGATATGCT target_entity="LXRa homodimer (NR concentration 270 nM)" group_label=III
sequence_input=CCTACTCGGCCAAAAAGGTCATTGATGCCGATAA target_entity="LXRa homodimer (NR concentration 270 nM)" group_label=II
sequence_input=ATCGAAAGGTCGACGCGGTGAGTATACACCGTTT target_entity="LXRa homodimer (NR concentration 270 nM)" group_label=I
sequence_input=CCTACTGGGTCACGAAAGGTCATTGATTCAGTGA target_entity="LXRa homodimer (NR concentration 270 nM)" group_label=III
sequence_input=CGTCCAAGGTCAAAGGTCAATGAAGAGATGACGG target_entity="LXRa homodimer (NR concentration 270 nM)" group_label=II
sequence_input=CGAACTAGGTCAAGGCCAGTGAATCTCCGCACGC target_entity="LXRa homodimer (NR concentration 270 nM)" group_label=I
sequence_input=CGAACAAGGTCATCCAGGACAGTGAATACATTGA target_entity="LXRa homodimer (NR concentration 270 nM)" group_label=II
